Target: T1, human PD-L1 on CHO-K1 cells overexpressing human PD-L1 (human, UniProt Q9NZQ7 19-290)
T1 construct: whole, on cells; also called CHO-K1/hPD-L1; CHO-K1-hPD-L1
T1 sequence (Q9NZQ7 19-290): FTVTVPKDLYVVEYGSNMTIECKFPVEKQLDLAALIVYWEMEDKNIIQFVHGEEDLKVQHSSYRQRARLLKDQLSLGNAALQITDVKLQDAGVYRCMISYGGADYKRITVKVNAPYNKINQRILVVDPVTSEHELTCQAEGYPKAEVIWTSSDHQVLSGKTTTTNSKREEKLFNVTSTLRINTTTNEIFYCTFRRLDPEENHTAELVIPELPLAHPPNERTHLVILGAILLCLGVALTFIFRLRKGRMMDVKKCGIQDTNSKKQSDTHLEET
Test: flow cytometry on CHO-K1 cells overexpressing human PD-L1 (CHO-K1/hPD-L1) [continued) F]
Kindly supply the reported EC50 values for the records listed here.
Dear colleague, please return just the value in nM, with no unit written.

// query For the binder PR006246 (antibody, human IgG1, V domains shown, The HC entry is used) VH: QVQLVESGGGVVQPGMSLRLSCAASGFDFSSYGMYWVRQAPGKGQEWVASIRYTGTEKHYADSVKGRFTISRDNSKNTLYLEMNSLRVEDTAVYYCAKNRAIFGVIPDDSDIRGQGTMVTVSS , what EC50 is on record?
// result 0.764

// query Any idea what EC50 was measured for PR005878 (antibody, human IgG1, V domains shown, The HC entry is used) VH: QVQLVESGGGVVQPGMSLRLSCAASGFTFSSYGMYWVRQAPGKGQEWVASIRYTGTEKHYADSVKGRFTISRDNSKNTLYLEMNSLRVEDTAVYYCAKNRALFGVIPDDSDIRGQGTMVTVSS ?
// result 1.08

// query State the recorded EC50 for this entry: PR006247 (antibody, human IgG1, V domains shown, The HC entry is used) VH: QVQLVESGGGVVQPGMSLRLSCAASGFDFSSYGMYWVRQAPGKGQEWVASIRYTGTEKHYADSVKGRFTISRDNSKNTLYLEMNSLRVEDTAVYYCAKNRALFGVIPDASDIRGQGTMVTVSS
// result 1.01

// query Looking for the measured EC50 of PR006248 (antibody, human IgG1, V domains shown, The HC entry is used) VH: QVQLVESGGGVVQPGMSLRLSCAASGFDFSSYGMYWVRQAPGKGQEWVASIRYTGTEKHYADSVKGRFTISRDNSKNTLYLEMNSLRVEDTAVYYCAKNRALFGVIPDDSDIRGQGTMVTVSS , can you help?
// result 0.606

// query I have this binder here, PR002082 (antibody, human IgG1, V domains shown, HCAb; also called PTM variant of PR000960 (N28T, N31S)) VH: QVQLVESGGGVVQPGMSLRLSCAASGFTFSSYGMYWVRQAPGKGQEWVAIIWYDGTKKHYADSVKGRFTISRDNSKNTLYLEMNSLRVEDTAVYYCAKNRAIFGVVPDASDIRGQGTMVTVSS , and I need its recorded EC50.
// result 1.31

// query Need EC50, item PR006245 (antibody, human IgG1, V domains shown, The HC entry is used) VH: QVQLVESGGGVVQPGMSLRLSCAASGFDFSSYGMYWVRQAPGKGQEWVASIRYTGTEKHYADSVKGRFTISRDNSKNTLYLEMNSLRVEDTAVYYCAKNRAIFGVVPDASDIRGQGTMVTVSS
// result 0.964
